- System: Pseudomonas aeruginosa
- Experimental Details: Antibacterial activity against multi-drug resistant Pseudomonas aeruginosa clinical isolate PA264 assessed as inhibition of bacterial growth incubated for 18 hrs by two fold broth microdilution assay
- Format: functional
Below: a set of entries, each annotated with reported MIC.
Just the number in µg/mL, nothing appended.

Molecule	MIC, µg/mL
CN(C)c1ccc(O)c2c1C[C@H]1C[C@H]3[C@H](N(C)C)C(O)=C(C(N)=O)C(=O)[C@@]3(O)C(O)=C1C2=O	32
Cl.NC[C@H]1O[C@H](O[C@H]2[C@H](OCc3ccccc3)[C@@H](O[C@H]3O[C@H](COCc4ccccc4)[C@@H](OCc4ccccc4)[C@H](N)[C@H]3OCc3ccccc3)[C@H](N)C[C@@H]2N)[C@H](N)C[C@@H]1OCc1ccccc1	128

State the recorded MIC for this entry: CO[C@H]1/C=C/O[C@@]2(C)Oc3c(C)c(O)c4c(O)c(c(/C=N/N5CCN(C)CC5)c(O)c4c3C2=O)NC(=O)/C(C)=C\C=C\[C@H](C)[C@H](O)[C@@H](C)[C@@H](O)[C@@H](C)[C@H](OC(C)=O)[C@@H]1C
16

State the recorded MIC for this entry: C[C@H]1c2cccc(O)c2C(=O)C2=C(O)[C@]3(O)C(=O)C(C(N)=O)=C(O)[C@@H](N(C)C)[C@@H]3[C@@H](O)[C@@H]21.O
64

Where do the numbers come from? From ChEMBL document CHEMBL5335843.
